# assayMethodText: qHTS assay to identify small molecule agonists of the estrogen receptor alpha (ER-alpha) signaling pathway in the presence of an antagonist - cell viability counter screen (AID 1259386);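 note: cells exposed to compounds for 22 h at 37 °C before the viability read; nearly all actives have a fitted effect of over 30% in size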
# conditionNotes: VM7Luc4E2 viability, CellTiter-Fluor fluorescence, 22 h; series mostly up to 92.4 µM
Inconclusive results are not listed. Activity calls are given as the source filed them. Calls come from the whole dose curve; as a rule, active = well fitted cell-killing curve with a large enough effect in the repeat runs; inconclusive = weak or mixed curves, or effect the other way; inactive = no such curve, though single readings can be large or run the other way.
Can you answer with just one of these options? YES (active), NO (inactive)

Which result was noted for this molecule in the test: `CN(C)CCN(Cc1ccsc1)c1ccccn1` NO

Which outcome was entered for the molecule CCCCC(CC)COC(=O)CCCCCCCCC(=O)OCC(CC)CCCC (configuration not stated) in this test? NO

Recorded test outcome, item `Cc1nn(C)c(Oc2ccccc2)c1/C=N/OCc1ccc(C(=O)OC(C)(C)C)cc1` YES

Query: recorded result category for `CNCCCN1c2ccccc2CCc2ccccc21` in this test NO

Assay outcome for `COc1ccc(C(=O)c2ccc(OC)cc2O)c(O)c1` : what was it? NO

In this assay, the call recorded for C=CC1CC2C=CC1C2 (configuration not stated) was what? NO

Called result for `CCN(CC)CCNc1ccc(CNC=O)c2sc3ccc(OC)cc3c(=O)c12` YES

Fill in: this test's call for `CC/C=C\CCOC(=O)CC` is ___ NO

# lookup: test call for `NCCCN1CCOCC1` NO

Give the logged outcome of this assay for the following molecule: `Nc1ncn([C@H]2C[C@H](O)[C@@H](CO)O2)c(=O)n1` NO

// param item: `CN(C)C(=O)NC1(c2ccccc2)CCN(CC[C@@]2(c3ccc(F)c(F)c3)CN(C(=O)c3ccccc3)CCO2)CC1` ; yields the recorded call NO

Please state the recorded outcome for this molecule: `Cc1cccc(C)c1NC(=O)CN(CC(=O)O)CC(=O)O` NO
